# System: NCI-H23 lung
# PROCEDURE_DETAILS: NCI-60 one-dose screen, 48 h
# CONDITION_INFO: 10 µM unless noted
The panel holds about 83,000 compounds, 20% with a hit somewhere; the sample as a whole holds those more often. The source made the active and inactive calls. The calls were made as follows: active = growth percent below 10; inactive = the rest.
Classes used: TRUE = active, FALSE = inactive

{"columns": ["COMPOUND", "DISCRETE_LABEL"],
 "data": [
  ["Nc1ncnc2c1N=C(c1ccc3c(c1)OCO3)CC(c1ccc([N+](=O)[O-])cc1)N2 (stereo unspecified)", "FALSE"],
  ["COC(=O)c1ccc2c(c1)C(=O)c1c-2n(CCCN)c(=O)c2cc([N+](=O)[O-])ccc12", "TRUE"],
  ["COc1ccc2[nH]cc(-c3nc(-c4cn(C)c5c(Cl)nccc45)cs3)c2c1", "FALSE"],
  ["O=C(Nn1c2c(sc1=NCc1ccccc1)C(=O)c1ccccc1C2=O)c1cc2ccc1CCc1ccc(cc1)CC2", "FALSE"],
  ["C=C(C)[C@@H]1CC[C@]2(C(=O)NCC#CCN3CCN(C)CC3)CC[C@]3(C)[C@H](CC[C@@H]4[C@@](C)(CCC#N)[C@H](C(=C)C)CC[C@]43C)[C@@H]12", "FALSE"],
  ["C=CCn1c(SCC(=O)Nc2ccc(C(=O)/C=C/c3ccc(Cl)cc3)cc2)nnc1-c1cc(-c2ccc(S(N)(=O)=O)cc2)nc2ccccc12", "FALSE"],
  ["N#C/C(=C/c1ccc([N+](=O)[O-])cc1)n1nnc2cc(F)c(F)cc21", "FALSE"],
  ["CCN1CC(=O)N(/N=C2\\C(=O)Nc3ccccc32)C1=S", "FALSE"],
  ["CCn1c(SCC(=O)c2ccc(Br)cc2)nnc1-c1ccncc1", "FALSE"],
  ["Oc1c(Cl)cc(Cl)c2ccc(Cn3cc(-c4ccc(C(F)(F)F)cc4)nn3)nc12", "FALSE"],
  ["CCCCNC(=O)Oc1ccc(/C(=C(/CC)Cc2ccccc2)c2ccc(OCCN3CCCCCC3)cc2)cc1", "FALSE"],
  ["Cc1cccc2c1NC(=O)C2(c1ccc(O)cc1)c1ccc(O)cc1", "FALSE"],
  ["C[C@]12C=CC(=O)C=C1CCC1C2[C@@H](O)C[C@@]2(C)C1CC[C@]2(O)C(=O)COC(=O)CCC(=O)O (stereo partly specified)", "FALSE"],
  ["Cc1ccc(NC(=S)NNC(=S)NNc2ccccc2)cc1C", "FALSE"],
  ["CN(C)CCNc1nc2c3cc(Cl)ccc3nn2c2ccccc12", "FALSE"],
  ["COC(C(=O)[C@@H](O)[C@@H](C)O)[C@@H]1Cc2cc3cc(O[C@H]4C[C@@H](O[C@H]5C[C@@H](O)[C@H](O)C(C)O5)[C@H](O)C(C)O4)cc(O)c3c(O)c2C(=O)[C@H]1O[C@H]1C[C@@H](O[C@H]2C[C@@H](O[C@H]3C[C@@H](OC)[C@H](O)C(C)O3)[C@@H](O)C(C)O2)[C@H](O)C(C)O1 (stereo partly specified)", "FALSE"],
  ["Clc1ccc(Sc2cnc(-c3ccccc3)o2)cc1", "FALSE"],
  ["CCc1nc2c(=O)[nH]cnc2o1", "FALSE"],
  ["CCN1C(=O)N(CC)C2C1NN=c1s/c(=C\\c3ccc(Cl)cc3Cl)c(=O)n12 (stereo unspecified)", "FALSE"],
  ["CCN1CCN(Cc2cn(CC(=O)Nc3ccc4c(ccn4Cc4ccccc4)c3)nn2)CC1", "FALSE"],
  ["CN1CCN(Cc2ccc(NC(=O)c3cncc(C#Cc4cnc(N)c5ccccc45)c3)cc2C(F)(F)F)CC1", "TRUE"],
  ["N=C(N)c1ccc(-c2ccc(-c3cc(Cl)cc(Cl)c3)o2)o1", "TRUE"],
  ["OCc1cccc(-c2ccc3ncc(-c4nc(NC5CC5)ncc4F)n3c2)c1", "TRUE"],
  ["CS(=O)(=O)c1cccc(-c2c(-c3cccc(OS(N)(=O)=O)c3)nc3sccn23)c1", "FALSE"],
  ["OCCOCCN(Cc1ccccn1)Cc1cc(I)cc(I)c1O", "FALSE"],
  ["C=CCc1c(O)c(C(=O)/C=C/c2ccc(Cl)cc2)c(OC)c2ccoc12", "FALSE"],
  ["O=C(Cn1cc(CN2C(=O)c3ccccc3S2(=O)=O)nn1)Nc1nc2ccccc2s1", "FALSE"],
  ["C#CCOc1cccc(Nc2ncnc3ccc(NC(=O)CCl)cc23)c1", "TRUE"],
  ["Cc1ccc(/C=C2\\CN(C(=O)OC(C)(C)C)C/C(=C\\c3ccc(C)cc3)C2=O)cc1", "FALSE"],
  ["CN([O-])c1nc(N(C)[O-])nc(N2CCOCC2)n1.CN([O-])c1nc(N(C)[OH2+])nc(N2CCOCC2)n1.[Fe+3]", "FALSE"],
  ["COc1cc(-c2cc(-c3ccc(N(C)C)cc3)nc(N3CCC(O)CC3)c2C#N)cc(OC)c1OC", "TRUE"],
  ["Nc1c(C(=O)Nc2ccccc2Cl)sc2nc3c(cc12)C(O)CCC3 (stereo unspecified)", "FALSE"],
  ["Cn1c(=O)c2c(nc(NC3=NS(=O)(=O)c4ccccc43)n2CC(=O)N2CCc3ccccc32)n(C)c1=O", "FALSE"],
  ["CCOC(=O)c1[nH]c(=O)c2c(C)nc(-c3ccccc3)cc2c1O", "FALSE"],
  ["N#Cc1c(-c2ccc(Cl)cc2)nc(SCC(=O)NC2=NN=C(c3ccccc3)CS2)[nH]c1=O", "FALSE"],
  ["CCOC(=O)c1c(C)c2c(n1C)CSc1cc(C(=O)c3ccccc3)c(=O)[nH]c1-2", "FALSE"]
]}

###

# Tested on: A498 renal
# PROCEDURE_DETAILS: NCI-60 one-dose screen, 48 h (100 = growth as untreated, 0 = no growth, -100 = all killed)
# CONDITION_INFO: 10 µM unless noted
Compounds without any hit were thinned out: in the full panel of roughly 83,000, 20% have a hit.

{"columns": ["COMPOUND", "growth / %"],
 "data": [
  ["O=C1/C(=C/c2ccc(-c3ccc(Br)cc3)o2)SC(=S)N1CCc1ccc(O)cc1", 64.7],
  ["COC(=O)c1ccc2c(c1)C(=O)c1c-2n(CCCN)c(=O)c2cc([N+](=O)[O-])ccc12", -100],
  ["CN1CCN(c2ccc(NC(=O)c3nc4ccc5[nH]ncc5c4c4c3CCCC4)cc2C(F)(F)F)CC1", 82.4],
  ["COC1=CC(c2ccc[nH]2)=N/C1=C\\c1[nH]c(C)c(C(=O)OCc2ccccc2)c1C", -37.7],
  ["CCN(C(=O)N1CCN(c2cc3c(cc2F)c(=O)c(C(=O)O)cn3C2CC2)CC1)c1nc(-c2ccc(Cl)cc2)cs1", 3.1],
  ["O=c1oc2c(cnc3ccccc32)cc1-c1ccsc1", 107],
  ["N#CC1C=CN(CC(N)=O)c2ccc3cccnc3c21 (stereo not given)", 85.9],
  ["Cc1ccc(/C=N/Nc2nc(Nc3ccccc3)nc(-n3nc(C)cc3C)n2)cc1", 58.5],
  ["COCCn1cc(-c2nc(-c3cc4cccnc4n3CCOC)cs2)c2cc(OC)ccc21", 66.8],
  ["CC12CCC3c4ccccc4CCC3(CO1)C2 (stereo not given)", 78.9]
]}

###

# System: UO-31 renal
# PROCEDURE_DETAILS: NCI-60 one-dose screen, 48 h (100 = growth as untreated, 0 = no growth, -100 = all killed)
# CONDITION_INFO: 10 µM unless noted
# Description: Growth inhibition of the UO-31 human tumor cell line is measured as a screen for anti-cancer activity. Cells are grown in 96 well plates and exposed to the test compound for 48 hours. Compounds are tested at a single concentration, which is 10^-5 M for most compounds. The reported endpoint is percent growth (GI% or GIPRCNT), where numbers from 0 - 100% represent growth inhibition, and numbers from -100% - 0 represent cell death. For example, a value of 40 represents 60% growth inhibition. […]
The panel holds about 83,000 compounds, 20% with a hit somewhere; the sample as a whole holds those more often.
# growth annotations

{"columns": ["COMPOUND", "UNIT_ABBREVIATION", "growth"],
 "data": [
  ["CCn1c(SCC(=O)c2ccc(Br)cc2)nnc1-c1ccncc1", "%", 91.4],
  ["S=C(Nc1ccc(-c2nc(N3CCOCC3)c3cccn3n2)cc1)Nc1cccnc1", "%", 15.1],
  ["CCOP(=O)(OCC)c1nc(-c2ccccc2)oc1NCc1cccnc1", "%", 89.7],
  ["COc1ccc(-c2csc(NC(=O)CSc3nc(-c4ccccc4)cc(=O)[nH]3)n2)cc1", "%", 65.6],
  ["Cn1cccc1C(=O)C1C(c2cccc([N+](=O)[O-])c2)C2C3CCCCC3CN2C12C(=O)Nc1ccc(Cl)cc12 (stereo not given)", "%", 45.5],
  ["COc1ccc(C(=O)Nc2ncc(Cc3ccc(F)cc3)s2)cc1", "%", 39.8],
  ["O=[N+]([O-])C1C(c2ccccc2)C12c1ccccc1-c1ccccc12 (stereo not given)", "%", 28.3],
  ["Cc1nc2sc(C(=O)Nc3cccc(Cl)c3C)c(N)c2cc1C(=O)c1ccccc1", "%", 38.8],
  ["CN(Cc1ccc(C(F)(F)F)cc1)CC(O)C(=O)Nc1ccc(Cl)cc1 (stereo not given)", "%", 12.6],
  ["CCCCCCCCCCCCCCCC(N)c1ccccc1 (stereo not given)", "%", 26.2]
]}

FYI, the data here is from PubChem BioAssay (NCI).
